biological target: TDP-43 (Homo sapiens, UniProt Q13148 1-414); assay: RNA Bind-n-Seq with designed 260-mer pool; 25 mM Tris-HCl, 150 mM KCl, 3 mM MgCl2, BSA (printed 500 mg/mL), 20 units/mL SUPERase IN; pH not stated; 500 nM RNA pool, 1 h, 4 C; TDP-43 5, 50, 500 nM; high values mean tight binding; conditions: protein: recombinant; tags: SBP (GST cleaved off with PreScission; pGEX-GST-SBP)
Sequence (Q13148 whole entry): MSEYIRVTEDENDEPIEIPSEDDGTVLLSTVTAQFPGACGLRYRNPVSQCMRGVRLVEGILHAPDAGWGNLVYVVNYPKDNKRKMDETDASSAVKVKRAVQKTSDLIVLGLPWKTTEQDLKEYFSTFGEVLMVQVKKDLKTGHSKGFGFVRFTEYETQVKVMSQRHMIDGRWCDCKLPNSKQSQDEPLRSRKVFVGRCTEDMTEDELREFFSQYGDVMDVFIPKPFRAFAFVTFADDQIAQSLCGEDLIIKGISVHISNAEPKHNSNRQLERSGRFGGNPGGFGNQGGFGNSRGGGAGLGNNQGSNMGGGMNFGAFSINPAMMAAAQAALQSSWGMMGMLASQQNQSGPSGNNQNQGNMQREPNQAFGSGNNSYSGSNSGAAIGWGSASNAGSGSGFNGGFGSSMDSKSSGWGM
Over roughly 9,900 sequences, “r (bound/input frequency ratio)” has its median near 0.7; the highest 2% begin near 6.5. Many of the other results were omitted from the sample, so the highest values are more common in it than they were.
outcome.measure: binding signal

ENSMUSG00000090935.713|Synj2bp (ssRNA) RNA: GGGAGUUCUACAGUCCGACGAUCGCUUCGAUAUCCGCAUGCUAAAGUCCAGAGCUCUGCUCUCUGAGCAUCUGCCCCAGAUACAGAGGCAGAGUAUGAAGUGGAACAUUGUUUUAUUCCUAGGUGCUCAGGACAGACUGAUCAACCUCCAGUAACAUAUGUGGUUAGUAAGUGCUUCAGCUUGUGUAGCCAUUAAUAACCAAGUCAUAGGAUUGUGAAUCUAAAAUACUCCUGGGUAAAAUUUGUAUUAGAAUGGAAAAAAAAAUGAGGGUCAGAAAGGUGAGCUAACUUCAAGUUAGAUACUCUCUUGCGGUCGCACUAGUGUGGAAUUCUCGGGUGUCAAGG :: 1.85 R (bound/input frequency ratio)

Turning now to a further record.
Lookup: Identify the reported binding signal for the following entry. ENSMUSG00000028439.167|Fam219a (ssRNA) RNA: GGGAGUUCUACAGUCCGACGAUCGCUUCGAUAUCCGCAUGCUAUACAGUGAGCCAAGUGGCUGUAUGAUAUGGUAUGGUAUGGUAUGGUAUGGUAUGGUAUGGUAUGCACAUGUGUGUGCAUGUGUGUGUGCCUGUGUGUGUGCGUGUGCGUGUGUGUAUGUGUGUGCGUGUGUGUGUGUGUGUGUUGUACCCGAGUGUGUGUUGAGCCUAUCUGUCCAGGGAACCAGAUUGGUGUCCGAGAUGAGGAAAUGGCUGUGGCCUGGGAAAUCAGUGAGAGGCCGCUUGGGAAUGAGAAUGCAGUGCUCUUGCGGUCGCACUAGUGUGGAAUUCUCGGGUGUCAAGG
Found: 6.28 R (bound/input frequency ratio)
